Sourced from patent US8163740B2

# pKi listing for each entry below
Target of assay: recombinant human 5-HT5A receptor (Homo sapiens, UniProt P47898)
Sequence (P47898 whole entry): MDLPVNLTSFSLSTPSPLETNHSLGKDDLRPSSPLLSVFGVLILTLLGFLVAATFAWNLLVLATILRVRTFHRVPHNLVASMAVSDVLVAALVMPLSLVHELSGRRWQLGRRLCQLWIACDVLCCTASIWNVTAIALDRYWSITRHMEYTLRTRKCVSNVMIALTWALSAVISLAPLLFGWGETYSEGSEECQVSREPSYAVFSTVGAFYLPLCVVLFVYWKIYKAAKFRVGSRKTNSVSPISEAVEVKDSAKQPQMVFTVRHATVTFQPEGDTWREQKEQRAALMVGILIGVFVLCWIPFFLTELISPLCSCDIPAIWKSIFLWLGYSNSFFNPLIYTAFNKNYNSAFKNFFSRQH
Test method notes: [3H]LSD radioligand binding assay
The value called pKi is obtained by taking minus log10 of the concentration in mol/L.

{"Compound": "CN1C2COCC1CC(CC(=O)Nc1ccc3c(c1)COC(NC1CCc4ccccc41)=N3)C2 (centres unmarked)", "Recorded value": 8.53}

What does the record list as pKi for CN1C2COCC1CN(CC(=O)Nc1ccc3c(c1)COC(N[C@@H]1CCc4ccccc41)=N3)C2 ?
7.72

* * *

Target of assay: recombinant human 5-HT5A receptor (Homo sapiens, UniProt P47898)
Test method notes: [3H]LSD radioligand binding assay
Condition summary: [3H]LSD (approximately 1 nM); membranes from HEK-EBNA cells transiently expressing 5-HT5A; Ki by Cheng-Prussoff equation; read-out: Ki
Recorded pKi values for a group of compounds are listed next.
Note: pKi values are expressed as the negative base-10 logarithm of concentration in M.

In the examples that follow, each entry is paired with its recorded pKi.
{"Structure smiles string": "COc1ccccc1CNC1=Nc2ccc(N)cc2CO1", "pKi": 8.22}
{"Structure smiles string": "CC(C)(O)CNCC(=O)Nc1ccc2c(c1)COC(N[C@@H]1CCc3ccccc31)=N2", "pKi": 8.03}

Then this compound:
Endpoint output: pKi of O=C(Nc1ccc2c(c1)COC(NCCOc1ccccc1)=N2)C1CC1 . Value?
8.48

* * *

Property: melting point; scope: individual compounds
Field format: number, assumed °C, no unit text.

Reported melting point for N=C(NO)c1ccc2c(c1)COC(N[C@@H]1CCc3ccccc31)=N2 : what is it?
206

Please give the measured melting point for this compound: C(=C\c1ccc2c(c1)COC(N[C@@H]1CCc3ccccc31)=N2)/c1ccccc1
162

melting point lookup needed for Cc1nnc(Nc2ccc3c(c2)COC(N[C@@H]2CCc4ccccc42)=N3)o1 , thanks.
137

May I ask what melting point has been recorded for COc1cccc2c1C(NC1=Nc3ccc(Nc4nnc(C)o4)cc3CO1)CO2 (racemic) ?
191

Give the measured melting point of COc1cccc2c1C(NC1=Nc3ccc(Nc4nnc(C5CC5)o4)cc3CO1)CC2 (racemic) .
204

Quick one: melting point for Cc1nnc(Nc2ccc3c(c2)COC(NC2CCc4cc(F)ccc42)=N3)o1 (racemic) ?
121

Sample COc1cccc2c1C(NC1=Nc3ccc(Nc4nnc(C)o4)cc3CO1)CC2 (centres unmarked) — what was its melting point?
162

Requested read-out: melting point. Entry: COc1cccc2c1C(NC1=Nc3ccc(Br)cc3CO1)CC2 (racemic)
151

* * *

Target of assay: recombinant human 5-HT5A receptor (Homo sapiens)
Test method notes: [3H]LSD radioligand binding assay
Condition summary: [3H]LSD (approximately 1 nM); membranes from HEK-EBNA cells transiently expressing 5-HT5A; Ki by Cheng-Prussoff equation; read-out: Ki
Overview of reported Ki across a group of compounds:
Lab book: enter the figure in nM, no units written.

Previously resolved entries follow.
{"Compound": "COc1cccc2c1C(NC1=Nc3ccc(NC(=O)NC(C)C)cc3CO1)CO2 (racemic) [Example 16]", "Ki / nM": 2.93}
{"Compound": "COCCNCC(=O)Nc1ccc2c(c1)COC(N[C@@H]1CCc3ccccc31)=N2 [Example 69]", "Ki / nM": 8.34}
{"Compound": "O=S(=O)(Nc1ccc2c(c1)COC(N[C@@H]1CCc3ccccc31)=N2)N1CCOCC1 [Example 31]", "Ki / nM": 4.38}
{"Compound": "Cc1cc(C)nc(Nc2ccc3c(c2)COC(N[C@@H]2CCc4ccccc42)=N3)n1 [Example 47]", "Ki / nM": 3.56}
{"Compound": "N=C(NO)c1ccc2c(c1)COC(N[C@@H]1CCc3ccccc31)=N2 [Example 130]", "Ki / nM": 11.6}
{"Compound": "c1ccc2c(c1)CC[C@H]2NC1=Nc2ccc(C3CC3)cc2CO1 [Example 152]", "Ki / nM": 27.3}

# Ki lookup, item COc1cccc2c1C(NC1=Nc3ccc(Nc4nnc(C(F)(F)F)o4)cc3CO1)CO2 (racemic) [Example 145]
40.2

# get_value(readout='Ki', item= Fc1ccc2c(c1)CCC2NC1=Nc2ccc(Nc3cccc(C(F)(F)F)n3)cc2CO1 (racemic) [Example 57] )
6.06

Returns the measured Ki for the input compound. Input: CN1CCN(S(=O)(=O)Nc2ccc3c(c2)COC(N[C@@H]2CCc4ccccc42)=N3)CC1 [Example 72]
28.6

Dear colleague, I am looking for the recorded Ki of the following compound: COCC1CN(CC(=O)Nc2ccc3c(c2)COC(N[C@@H]2CCc4ccccc42)=N3)CCN1C (stereo partly drawn) [Example 147]
3.55

Give the measured Ki of O=C(Nc1ccc2c(c1)COC(NC1CCCCCCC1)=N2)C1CC1 [Example 155] .
1.3

Dear colleague, I am looking for the recorded Ki of the following compound: COc1cccc2c1C(NC1=Nc3ccc(N)cc3CO1)CO2 (racemic) [Example 6]
7.83

If you can, please state the reported Ki value of O=C(CN1CCOCC1)Nc1ccc2c(c1)COC(NC1COc3cc(F)ccc31)=N2 (racemic) [Example 45] .
40.7

May I ask what Ki has been recorded for CC(C)N1CCC(NC(=O)Nc2ccc3c(c2)COC(NC2CCCCCC2)=N3)CC1 [Example 124] ?
3.32

What measured Ki goes with COc1cccc2c1C(NC1=Nc3ccc(NC(=O)CN4CCN(C)C(CO)C4)cc3CO1)CC2 (stereo not drawn) [Example 116] ?
2.89
